Assay: probe aWnt5a binding to arrayed compounds – biochemical, biotinylated probe, 635/667 nm fluorescence, primary screen (AID 1113);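 also: score merges 667 nm fluorescence intensity with signal-to-noise per printed feature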
Conditions: small-molecule microarray, higher = more signal
Experimental readout: composite z-score
Numbers only.

Example cases with answers are listed next.
Compound	composite z-score
COCCOC(=O)N1C(=O)[C@@]2(c3cc(C#CCNC(N)=O)ccc31)[C@H](C(=O)Nc1nc3ccccc3s1)[C@H]1C(=O)O[C@H](c3ccccc3)[C@H](c3ccccc3)N1[C@@H]2c1ccccc1OCCO	-0.0405
COc1cc(CO)cc(I)c1O[C@H]1C=C(C(=O)NCCO)C[C@@H]2O[C@H]12	0.055
C=CCC(OC(C)=O)[C@@H]1[C@@H](N(Cc2cc3ccccc3o2)C(=O)Cc2ccc(OC)cc2)c2cc(OCCCO)ccc2N1C(=O)c1ccc2ccccc2n1 (some centres not stated)	0.0573
CC(C)N1C(=O)C[C@@](C(=O)NCCN2CCOCC2)(c2ccc([N+](=O)[O-])cc2)[C@H]1c1ccc(CO)cc1	-0.298
C=C(CCCC)/C(=C/C[C@H](OC(=O)c1ccncc1)c1ccccc1OCCO)c1cc(C(=O)OC)ccc1OC	-0.0331
N#Cc1ccc(NN2C(C(O)C3CC=CCC3)C=CC3C(=O)N(c4ccccc4)C(=O)C32)cc1 (configuration not stated)	-0.13

Asked: Form field: reported composite z-score of COCCn1c(C(=O)N(C)C)cc2c1C[C@H]1CN(C(=O)c3ccccc3)[C@@](Cc3ccc(OC)cc3)(C(=O)OC)[C@@H]21
Given back: 0.0431

----------
Assay: basal CRE-LacZ reporter activity in PC12 – cell-based, unstimulated, primary screen (AID 1145)
Conditions: no forskolin, luminescence, 4.5 h, higher = more signal, called active from +8 up or from −8 down
Please go through the items and note down their z-score.
Numbers only.

Before answering, review these 4 worked examples.
Sample smiles	z-score
C[N+](C)(C)CCCC[C@@H]1NC(=O)[C@@H]2C[C@H](C(=O)NCc3ccc(F)cc3)[C@H](c3ccc(O)cc3)N2C1=O	0.692
COc1ccc(C#Cc2ccc3c(c2)[C@]2(C(=O)N3)[C@H](C(=O)O)[C@H]3C(=O)O[C@H](c4ccccc4)[C@H](c4ccccc4)N3[C@@H]2c2ccccc2OCCO)cc1	1.43
COCCOC(=O)N1C(=O)[C@@]2(c3cc(C#CCC(C(=O)OC)C(=O)OC)ccc31)[C@H](C(N)=O)[C@H]1C(=O)O[C@H](c3ccccc3)[C@H](c3ccccc3)N1[C@@H]2c1ccc(O)cc1	-0.168
COc1ccc(C(=O)Nc2ccc(CN3C(=O)[C@@]4(O[C@@H](CCn5cc(CCO)nn5)[C@H]([Si](C)(C)c5ccc(OC)cc5)[C@H]4C)c4ccccc43)cc2)cc1	6.94

Now consider a different compound.
Asked: Which measured z-score value corresponds to CCOC(=O)C[C@H]1[C@H](OC(=O)Cc2ccc3c(c2)OCO3)[C@@H](NC(=O)c2ccc3ccccc3n2)c2cc(OCCCO)ccc2N1C(=O)Cc1ccc(OC)cc1 ?
Given back: 3.29

----------
Test: compound effects on multiple myeloma cell viability – MM1S, calcein-AM fluorescence, 48 h, basal, profiling panel (AID 1165);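 also: viability of MM1S multiple myeloma cells under basal unstimulated conditions; test concentration not given here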
Details: higher = more signal
For each entry below, report its z-score value.
Answers are plain numbers.

Record excerpt, results attached:
Compound	Recorded value
C=CCOC(=O)[C@@H]1[C@H]2C(=O)O[C@H](c3ccccc3)[C@H](c3ccccc3)N2[C@H](c2ccc(OCCOC(=O)[C@H]3C[C@H]4C(=O)N[C@@H](CCCCN(C)C)C(=O)N4[C@H]3c3ccc(O)cc3)cc2)[C@@]12C(=O)Nc1ccc(I)cc12	-0.644
C=CCC(OC(C)=O)[C@@H]1[C@@H](N(Cc2ccc(-c3cccc(C(F)(F)F)c3)o2)C(=O)c2ccc(-c3ccccc3)cc2)c2cc(OCCCO)ccc2N1C(=O)c1ccc2ccccc2c1 (stereo partly specified)	0.0723
O=C1NC(=O)C2C1C=CC(C(O)c1ccc([N+](=O)[O-])cc1)N2Nc1ccccn1 (stereo unspecified)	-0.492

Each compound below has a recorded value; state its z-score.
1. CCCNC(=O)[C@@]1(Sc2ccc(C)cc2)CC(=O)N(Cc2ccccc2Cl)[C@@H]1c1ccc(CO)cc1I
2. C=C(COC)C(=O)CC[C@@H](OC(C)=O)c1ccccc1OCCO
3. CCCC[C@H]1OB(O)C[C@H]2C1=C(COc1ccccc1)C[C@H]1C(=O)C=CC(=O)[C@H]12
4. CC(C)NC(=O)[C@@H]1c2ccccc2C(=O)N(Cc2ccccc2C(F)(F)F)[C@H]1c1ccc(CO)cc1
5. O=C1C=C(c2ccccc2)C(=O)C2=C1CC([C@H]1Oc3ccccc3S(=O)(=O)N3CCC[C@@H]13)=CC2

Given back:
-1.9
-3.28
-3.27
-0.321
-3.2

src = PubChem BioAssay
